tgt: Upc2 (UniProt Q12151)
Sequence: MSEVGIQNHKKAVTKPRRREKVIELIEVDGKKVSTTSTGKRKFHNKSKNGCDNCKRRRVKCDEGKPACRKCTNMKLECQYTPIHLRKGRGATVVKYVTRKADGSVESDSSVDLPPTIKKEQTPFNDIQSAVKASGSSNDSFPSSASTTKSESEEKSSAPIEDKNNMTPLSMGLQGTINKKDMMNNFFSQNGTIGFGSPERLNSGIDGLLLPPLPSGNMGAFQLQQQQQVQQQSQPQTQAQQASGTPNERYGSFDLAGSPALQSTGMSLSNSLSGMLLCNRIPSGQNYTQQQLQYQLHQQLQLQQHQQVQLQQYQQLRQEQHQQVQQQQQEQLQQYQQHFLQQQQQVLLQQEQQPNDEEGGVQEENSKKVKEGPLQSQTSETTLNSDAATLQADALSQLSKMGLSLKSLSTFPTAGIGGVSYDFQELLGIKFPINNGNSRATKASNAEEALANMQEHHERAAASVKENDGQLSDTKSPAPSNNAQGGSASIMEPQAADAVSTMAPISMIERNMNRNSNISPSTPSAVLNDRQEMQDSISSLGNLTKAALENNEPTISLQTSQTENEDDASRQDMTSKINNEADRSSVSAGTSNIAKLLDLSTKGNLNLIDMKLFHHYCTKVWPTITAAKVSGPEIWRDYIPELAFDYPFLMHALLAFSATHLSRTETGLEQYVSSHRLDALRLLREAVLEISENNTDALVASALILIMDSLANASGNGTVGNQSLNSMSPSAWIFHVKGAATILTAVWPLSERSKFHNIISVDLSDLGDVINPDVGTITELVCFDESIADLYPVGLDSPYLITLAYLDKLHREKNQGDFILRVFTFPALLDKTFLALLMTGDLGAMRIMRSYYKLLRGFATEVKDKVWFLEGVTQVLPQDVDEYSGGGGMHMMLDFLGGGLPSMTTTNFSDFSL
experimental protocol: PBM E-score (8-mer binding enrichment) (E-score (-0.5 to 0.5)); higher = stronger / more preferred TF binding
experimental setup: protein concentration: 200 nM; construct: GST-full length
Over roughly 33,000 sequences, “E-score (-0.5 to 0.5)” has its median near -0.043; the highest 2% begin near 0.37. The full list was thinned out, with the highest values kept by preference.
measured property: PBM E-score
Give the figure only, with no unit attached.

Solved cases below.
INSERT INTO assay_data (input_sequence, measured_property, observed) VALUES
  ('CCTTAACA', 'PBM E-score', -0.0468),
  ('CAAGCCTA', 'PBM E-score', -0.0953),
  ('CGAGCATA', 'PBM E-score', 0.175),
  ('ACGAACCG', 'PBM E-score', 0.378);

Q) What PBM E-score value was documented for this sequence, `CGGCCGTA` ?
A) 0.378

Q) I am curious: what PBM E-score value has been reported for `GCACCGTA` ?
A) 0.371

Q) Suppose we examine the sequence `GTATAAAC` ; what PBM E-score value has been reported?
A) 0.4
